system: 3D7 PfAMA1_104–442 (Plasmodium falciparum, UniProt Q7KQK5)
Construct: His6 (TEV-cleavable); made in house
Sequence (Q7KQK5 entry or part of it): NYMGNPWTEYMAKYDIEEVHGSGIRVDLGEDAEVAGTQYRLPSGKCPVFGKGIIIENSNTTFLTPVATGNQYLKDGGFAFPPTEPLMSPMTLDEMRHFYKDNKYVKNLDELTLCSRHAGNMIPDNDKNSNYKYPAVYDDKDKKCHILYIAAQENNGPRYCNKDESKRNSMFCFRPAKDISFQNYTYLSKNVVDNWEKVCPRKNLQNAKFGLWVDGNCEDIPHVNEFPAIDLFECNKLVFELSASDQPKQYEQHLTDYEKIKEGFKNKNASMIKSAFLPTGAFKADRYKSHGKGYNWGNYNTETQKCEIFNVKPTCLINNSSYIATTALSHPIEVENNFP
protocol_notes: SPR analysis of peptides binding to immobilized AMA1 (Biacore T200)
condition_details: SPR alanine scan, 1% DMSO in HBS-EP, 25°C
quantity: fold reduction in affinity for AMA1 relative to R1_5–16 (fold)
// units = fold; emit number, no label

Can you look up fold reduction in affinity for AMA1 relative to R1_5–16 on 3D7 PfAMA1_104–442 (Plasmodium falciparum, UniProt Q7KQK5) for Ac-FLPLFSKFASRM-NH2 [R1_5–16 G13A] ?
21

Another substance to check: Ac-FAPLFSKFGSRM-NH2 [R1_5–16 L6A]
33

Another substance to check: Ac-FLALFSKFGSRM-NH2 [R1_5–16 P7A]
35

Another substance to check: Ac-FLPLFSKAGSRM-NH2 [R1_5–16 F12A]
48

Another substance to check: Ac-FLPLFSAFGSRM-NH2 [R1_5–16 K11A]
15
